# tested system: T1, GnRH Bio-peptide 1 (not fully specified)
# T1 chain: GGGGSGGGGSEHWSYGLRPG
# assay remarks: ELISA
EC50 overview

| binder | uom | EC50 |
| --- | --- | --- |
| Clone 1 Ala scanning 4 (antibody, V domains shown) VH: QVQLVESGGGLVQAGGSVRLSCTASGRTFNNYVLGWFRQTPGKEREFVAAIRGTGSTTHADSVKGRFTISRDNAKNTVYLQMNSLKPEDTAVYYCAADDAYAPGNLRPQYWGQGTQVTVSS | nM | 152 |
| Clone 1 Ala scanning 2 (antibody, V domains shown) VH: QVQLVESGGGLVQAGGSVRLSCTASGRTFNNYVLGWFRQTPGKEREFVAAIRGTGSTTHADSVKGRFTISRDNAKNTVYLQMNSLKPEDTAVYYCAADAAYYPGNLRPQYWGQGTQVTVSS | nM | 19.8 |
| Clone 1 Ala scanning 9 (antibody, V domains shown) VH: QVQLVESGGGLVQAGGSVRLSCTASGRTFNNYVLGWFRQTPGKEREFVAAIRGTGSTTHADSVKGRFTISRDNAKNTVYLQMNSLKPEDTAVYYCAADDAYYPGNLAPQYWGQGTQVTVSS | nM | 4.2 |
| Clone 1 Ala scanning 1 (antibody, V domains shown) VH: QVQLVESGGGLVQAGGSVRLSCTASGRTFNNYVLGWFRQTPGKEREFVAAIRGTGSTTHADSVKGRFTISRDNAKNTVYLQMNSLKPEDTAVYYCAAADAYYPGNLRPQYWGQGTQVTVSS | nM | 509 |
| Clone 1 Ala scanning 7 (antibody, V domains shown) VH: QVQLVESGGGLVQAGGSVRLSCTASGRTFNNYVLGWFRQTPGKEREFVAAIRGTGSTTHADSVKGRFTISRDNAKNTVYLQMNSLKPEDTAVYYCAADDAYYPGALRPQYWGQGTQVTVSS | nM | 4.3 |
| Clone 1 Ala scanning 10 (antibody, V domains shown) VH: QVQLVESGGGLVQAGGSVRLSCTASGRTFNNYVLGWFRQTPGKEREFVAAIRGTGSTTHADSVKGRFTISRDNAKNTVYLQMNSLKPEDTAVYYCAADDAYYPGNLRAQYWGQGTQVTVSS | nM | 65.7 |
| Clone 1 Ala scanning 11 (antibody, V domains shown) VH: QVQLVESGGGLVQAGGSVRLSCTASGRTFNNYVLGWFRQTPGKEREFVAAIRGTGSTTHADSVKGRFTISRDNAKNTVYLQMNSLKPEDTAVYYCAADDAYYPGNLRPAYWGQGTQVTVSS | nM | 11.9 |
| Clone 1 Ala scanning 8 (antibody, V domains shown) VH: QVQLVESGGGLVQAGGSVRLSCTASGRTFNNYVLGWFRQTPGKEREFVAAIRGTGSTTHADSVKGRFTISRDNAKNTVYLQMNSLKPEDTAVYYCAADDAYYPGNARPQYWGQGTQVTVSS | nM | 4 |

Hello, the source for this data is patent US20260374857, in case you need it.
